Target: FLT3 (Homo sapiens)
Assay: Reaction Biology NanoBRET target engagement assay, FLT3
Format: cell-based
Conditions: transfected HEK-293 cells
Binning rule for recorded IC50: L = under 0.02 µM, M = from 0.02 µM up to 0.1 µM, H = 0.1 µM and over

> print(dat)
                                    molecule  class.label
 1  CC(C)(O)c1cn2c(-c3nc(N[C@@H]4CCCNC4)c(F)cc3F)cnc2cn1            H
 2  CC1(c2cn3c(-c4cccc(N[C@@H]5CCNC5)n4)cnc3cn2)CC1            L
 3  FC(F)(F)COc1cn2c(-c3cccc(N[C@@H]4CCNC4)n3)cnc2cn1            L
 4  CC(C)(C)c1cn2c(-c3nc(N[C@H]4CNC[C@@H]4F)c(F)cc3F)cnc2cn1            H
 5  CC(C)(C)c1cn2c(-c3nc(N[C@@H]4CCCNC4)c(F)cc3F)cnc2cn1            L
 6  CC(O)(c1cn2c(-c3cccc(N[C@H]4CNC[C@@H]4F)n3)cnc2cn1)C(F)(F)F (single isomer, unassigned) [Compound 78]            M
 7  O=C1CCCN1c1cn2c(-c3cccc(N[C@H]4CNCC[C@@H]4F)n3)cnc2cn1            L
 8  Cn1cc(-c2cn3c(-c4cccc(N[C@@H]5CCCNC5)n4)cnc3cn2)cn1            M
 9  CC(C)(O)c1cn2c(-c3nc(N[C@H]4CNCC[C@@H]4F)c(F)cc3F)cnc2cn1            H
10  CC(C)(O)c1cn2c(-c3cccc(N[C@H]4CNCC[C@@H]4F)n3)cnc2cn1            H

====

Listed compounds paired with reported pKd
Biological target: FLT3 D835V (Homo sapiens, UniProt P36888, D835V)
Test: DiscoverX KINOMEscan competition binding, FLT3 D835V
pKd: −log10 of the molar value.
READOUT LABEL: pKd

> print(dat)
                                   compound  reported.value
1  CC1(c2cn3c(-c4cccc(N[C@@H]5CCNC5)n4)cnc3cn2)CC1 [Compound 3]           10.64
2  CC(C)(O)c1cn2c(-c3cccc(N[C@H]4CNCC[C@@H]4F)n3)cnc2cn1 [Compound 31]            9.77
3  F[C@H]1CNC[C@@H]1Nc1cccc(-c2cnc3cnc(C4CC4)cn23)n1 [Compound 50]           10.82
4  FC(F)(F)C1(c2cn3c(-c4cccc(N[C@@H]5CCNC5)n4)cnc3cn2)CC1 [Compound 10]           10.08
5  Cn1cc(-c2cn3c(-c4cccc(N[C@H]5CNC[C@@H]5F)n4)cnc3cn2)cn1 [Compound 52]           10.96
6  CC(C)(O)c1cn2c(-c3cccc(N[C@@H]4CCCNC4)n3)cnc2cn1 [Compound 30]            9.44
7  CC1(c2cn3c(-c4cccc(N[C@H]5CNC[C@@H]5F)n4)cnc3cn2)CC1 [Compound 1]           10.82
8  FC(F)c1cn2c(-c3cccc(N[C@H]4CNC[C@@H]4F)n3)cnc2cn1 [Compound 16]           10.18
